Reference for the values: paper PMC5522039

# Tested System: T1, Mouse PD-L1 Fc-fusion protein (R&D Systems, 1019-B7) (Mus musculus, UniProt Q9EP73)
# T1 construct: programmed death-ligand 1 (PD-L1, B7-H1, CD274), mouse; also called moPD-L1; B7-H1; source: bought: R&D Systems (1019-B7)
# T1 sequence (Q9EP73 19-239): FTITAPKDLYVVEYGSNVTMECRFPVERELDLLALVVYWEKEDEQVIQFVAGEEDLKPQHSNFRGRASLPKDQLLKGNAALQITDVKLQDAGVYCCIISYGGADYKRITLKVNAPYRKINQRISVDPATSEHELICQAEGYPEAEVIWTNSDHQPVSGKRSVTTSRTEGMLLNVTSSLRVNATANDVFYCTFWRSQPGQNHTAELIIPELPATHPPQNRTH
# Method: SPR; Biacore T200, 25°C, HBS (0.01 M HEPES pH 7.4, 0.15 M NaCl, 3 mM EDTA, 0.005% Tween 20); mouse or human PD-L1 Fc-fusion protein amine-coupled on a CM5 chip (650-900 RU); Nb in crude periplasmic extract as analyte, its concentration estimated by CFCA; 9 dilutions, 120 s association, 160 s dissociation; 1-to-1 fit; affinity estimations
# Test Context: one partner purified
Give measured log10 Kd for each item. Keep answers brief.
Response schema: value (number) is log10 of Kd in units of nM.

Given the binder Nb B1 (HA-tagged, in periplasmic extract) (VHH, source: E. coli WK6 (pHEN4), crude periplasmic extract) VHH: QVQLQESGGGLVHPGGSLRLSCAASGFSLDNYAIGWFRQAPGKEREGVSCISSGSEGRRYYADFVKGRFTISRDNAKNTAFLQMNSLKPEDTADYYCATVGFCSSQYGMEFVGDYWGQGTQVTVSS , what is its reported log10 Kd?
2.09

Item: Nb L1 (HA-tagged, in periplasmic extract) (VHH, source: E. coli WK6 (pHEN4), crude periplasmic extract) VHH: VQAGGSLRLSCAASGYRYCRYDMSWYRQAPGKEREFVSAIDSYGSPTYADTVLGRFTISRDNAKNTVYLQMNSLKAEDTAMYYCKIDSTGWSSRCGKTYWGQGTQVTVSS
1.18

Item: Nb C6 (HA-tagged, in periplasmic extract) (VHH, source: E. coli WK6 (pHEN4), crude periplasmic extract) VHH: QVQLQESGGGLVQAGDSLRLSCAASGSTVSSSMMAWWRQTPGNQRELVALVASGNNTNYVDSVKGRFTVSRDNAKNTMYLQMNSLKPEDTAVYYCRILSVNGIWYWGQGTQVTVSS
-0.54

Item: Nb C11 (HA-tagged, in periplasmic extract) (VHH, source: E. coli WK6 (pHEN4), crude periplasmic extract) VHH: QVQLQESGGGLVQTGGSLRLSCAASGSTVSSSTMAWWRQTPGNQRELVALVASGGNTNYVDSVKGRFTVSRDNAKNTMYLQMNSLKPEDTAVYYCRILSVNGIWYWGQGTQVTVSS
1.08

Item: Nb C13 (HA-tagged, in periplasmic extract) (VHH, source: E. coli WK6 (pHEN4), crude periplasmic extract) VHH: QVQLQESGGGLVQTGGSLRLSCAASGSTVSSSTMAWYRQTPGNQRDLVALVGSGGNINYVDSVKGRFTVSIDNAKNTMYLQMNSLKPEDTAVYYCRILSVNGIWYWGQGTQVTVSS
1.52

Item: Nb G3 (HA-tagged, in periplasmic extract) (VHH, source: E. coli WK6 (pHEN4), crude periplasmic extract) VHH: QVQLQESGGGLVQTGGSLRLSCAASGSISSFNFMGWYRQAPGKQRELVALSTNSGVTNVAGSVKGRFTISRDNAKTTVYLQMNSLKPEDTAVYYCRVGAMGNLYWGQGTQVTVSS
0.70

Item: Nb G7 (HA-tagged, in periplasmic extract) (VHH, source: E. coli WK6 (pHEN4), crude periplasmic extract) VHH: QVQLQESGGGLVQSGGSLRLSCAASGSFFRTYIVSWYRQAPGKRREAVAVMSNSGNTNYADSVKGRFTISRDNAVNTVYLQMNSLKPEDTAVYYCNLLKVTVPPANYWGQGTQVTVSS
0.53

Item: Nb C7 (HA-tagged, in periplasmic extract) (VHH, source: E. coli WK6 (pHEN4), crude periplasmic extract) VHH: QVQLQESGGGSVQAGESLTLSCTASGSSLSHKSVGWWRQTPGNQRELVALVASGNNTNYVDSVKGRFTVSRDNAKNTMYLQMNSLKPEDTAVYYCRILSVNGIWYWGQGTQVTVSS
0.49

Item: Nb G6 (HA-tagged, in periplasmic extract) (VHH, source: E. coli WK6 (pHEN4), crude periplasmic extract) VHH: QVQLQESGGGLVQPGESLRLSCVASGSFFRTYIVSWYRQAPGKRREAVAVMSNSGNTNYADSVKGRFTISRDNAVNTVYLQMNSLKPEDTAVYYCNLLKVTVPPANYWGQGTQVTVSS
0.70

Item: Nb D1 (HA-tagged, in periplasmic extract) (VHH, source: E. coli WK6 (pHEN4), crude periplasmic extract) VHH: QVQLQESGGGLVQAGGSLRLSCAASGITVSINAMAWYRQPPGKQRELVALIIGGSTRYADSVKGRFTISRDNAKNTVYLQMNSLKPEDTAVYACNTRAYWGQGTQVTVSS
1.08

Item: Nb C4 (HA-tagged, in periplasmic extract) (VHH, source: E. coli WK6 (pHEN4), crude periplasmic extract) VHH: QVQLQESGGGLVQPGGSLRLSCAASGSTVSSSMMAWWRQTPGNQRELVALVASGNNTNYVDSVKGRFTVSRDNAKNTMYLQMNGLKPEDTAVYYCRLSVNGIWYWGQGTQVTVSS
-0.73

Item: Nb E1 (HA-tagged, in periplasmic extract) (VHH, source: E. coli WK6 (pHEN4), crude periplasmic extract) VHH: QVQLQESGGGLVQAGGSLRLSCATSGSIFSIISMGWYRQAPGKQRELVALVFRGGSTVYADSVKGRFTISGDIAKNTVYLQMDSLKPEDTAVYYCNVKSIGTAQYWGQGTQVTVSS
0.36

Item: Nb G5 (HA-tagged, in periplasmic extract) (VHH, source: E. coli WK6 (pHEN4), crude periplasmic extract) VHH: QVQLQESGGGLVQPGGSLRLSCAASGSFFRTYIVSWYRQAPGKRREAVAVMSNSGNTNYADSVKGRFTISRDNAVNTVYLQMNSLKPEDTAVYYCNLLKVTVPPANYWGQGTQVTVSS
0.59

Item: Nb C16 (HA-tagged, in periplasmic extract) (VHH, source: E. coli WK6 (pHEN4), crude periplasmic extract) VHH: QVQLQESGGGLVQAGGSLKVSCAVSGSTVSSSTMAWWRQTPGNQRELVALVDSGGKSNYVDSVKGRFTISTDNAKNTMYLQMNSLKPEDTAVYYCRILSVKGIWYWGQGTQVTVSS
1.18

Item: Nb I1 (HA-tagged, in periplasmic extract) (VHH, source: E. coli WK6 (pHEN4), crude periplasmic extract) VHH: QVQLQESGGGLVQAGGSLRLSCAASGRTFRRYDMGWFRQAPGKEREFVAASTWSADDTYYAGSVKGRFTISRDNAKNTVYLQMNSLKPEDTAVYYCAAGETRKYGFRTTEGYYDSWGQGTQVTVSS
1.83
